Ref: the supplement of paper PMC10307832

# System: NCI-H1792
# ASSAY PROTOCOL: relative viability (nuclei count vs DMSO), 5 days (fraction); higher = more cells survive
# SETTINGS: first compound 0.08 µM
PROPERTY: relative viability
Just the number, please, no unit attached.

| MOLECULE | relative viability |
| --- | --- |
| Oc1nc(-c2ccc(C(F)(F)F)cc2)nc2c1CSCC2 [XAV939] + CC(=O)Nc1cccc(-n2c(=O)n(C3CC3)c(=O)c3c(Nc4ccc(I)cc4F)n(C)c(=O)c(C)c32)c1 [Trametinib] (partner 0.02 µM) | 0.492 |
| C=C1C(=O)O[C@@H](CCCCCCCC)[C@@H]1C(=O)O [C-75] + Nc1nc2[nH]cc(CCc3ccc(C(=O)N[C@@H](CCC(=O)O)C(=O)O)cc3)c2c(=O)[nH]1 [Pemetrexed] (partner 0.2 µM) | 0.816 |

Proceed to the following item.
IN: If you can, please state the reported relative viability value of C=C1C(=O)O[C@@H](CCCCCCCC)[C@@H]1C(=O)O [C-75] + CC(C)C[C@H](NC(=O)[C@H](Cc1ccccc1)NC(=O)c1cnccn1)B(O)O [Bortezomib] (partner 0.002 µM) .
OUT: 0.979

###

# Test system: NCI-H1915
# ASSAY PROTOCOL: relative viability (nuclei count vs DMSO), 5 days (fraction); higher = more cells survive
# SETTINGS: first compound 0.1581 µM
PROPERTY: relative viability
Answer field: number only, no words.

| COMPOUND | relative viability |
| --- | --- |
| CC1(C)CCC(c2ccc(Cl)cc2)=C(CN2CCN(c3ccc(C(=O)NS(=O)(=O)c4ccc(N[C@H](CCN5CCOCC5)CSc5ccccc5)c(S(=O)(=O)C(F)(F)F)c4)cc3)CC2)C1 [Navitoclax] + COc1cc2c(Oc3ccc(NC(=O)C4(C(=O)Nc5ccc(F)cc5)CC4)cc3F)ccnc2cc1OCCCN1CCOCC1 [Foretinib] (partner 0.25 µM) | 1.02 |
| CC1(C)CCC(c2ccc(Cl)cc2)=C(CN2CCN(c3ccc(C(=O)NS(=O)(=O)c4ccc(N[C@H](CCN5CCOCC5)CSc5ccccc5)c(S(=O)(=O)C(F)(F)F)c4)cc3)CC2)C1 [Navitoclax] + CC(=O)c1c(C)c2cnc(Nc3ccc(N4CCNCC4)cn3)nc2n(C2CCCC2)c1=O [Palbociclib] (partner 0.5 µM) | 0.507 |

Please find the next compound below.
IN: Recorded relative viability for CC1(C)CCC(c2ccc(Cl)cc2)=C(CN2CCN(c3ccc(C(=O)NS(=O)(=O)c4ccc(N[C@H](CCN5CCOCC5)CSc5ccccc5)c(S(=O)(=O)C(F)(F)F)c4)cc3)CC2)C1 [Navitoclax] + Cc1nc(NC(=O)N2CCC[C@H]2C(N)=O)sc1-c1ccnc(C(C)(C)C(F)(F)F)c1 [Alpelisib] (partner 2 µM) , please?
OUT: 0.94

###

# System: LU99A
# ASSAY PROTOCOL: relative viability (nuclei count vs DMSO), 5 days (fraction); higher = more cells survive
# SETTINGS: first compound 0.01581 µM
Entries and their relative viability
API doc: respond with a numeric literal and nothing else, no unit.

Below are worked cases with known answers.
| MOLECULE | relative viability |
| --- | --- |
| CC1(C)CCC(c2ccc(Cl)cc2)=C(CN2CCN(c3ccc(C(=O)NS(=O)(=O)c4ccc(N[C@H](CCN5CCOCC5)CSc5ccccc5)c(S(=O)(=O)C(F)(F)F)c4)cc3)CC2)C1 [Navitoclax] + C[C@@H](Oc1cc(-c2cnn(C3CCNCC3)c2)cnc1N)c1c(Cl)ccc(F)c1Cl [Crizotinib] (partner 1 µM) | 0.691 |
| CC1(C)CCC(c2ccc(Cl)cc2)=C(CN2CCN(c3ccc(C(=O)NS(=O)(=O)c4ccc(N[C@H](CCN5CCOCC5)CSc5ccccc5)c(S(=O)(=O)C(F)(F)F)c4)cc3)CC2)C1 [Navitoclax] + O=C(CCCCCCC(=O)Nc1ccccc1)NO [Vorinostat] (partner 1 µM) | 0.451 |
| CC1(C)CCC(c2ccc(Cl)cc2)=C(CN2CCN(c3ccc(C(=O)NS(=O)(=O)c4ccc(N[C@H](CCN5CCOCC5)CSc5ccccc5)c(S(=O)(=O)C(F)(F)F)c4)cc3)CC2)C1 [Navitoclax] + CC(=O)c1c(C)c2cnc(Nc3ccc(N4CCNCC4)cn3)nc2n(C2CCCC2)c1=O [Palbociclib] (partner 0.5 µM) | 0.433 |

Would you kindly look at the next entry?
IN: Fill in the blank: the reported relative viability of CC1(C)CCC(c2ccc(Cl)cc2)=C(CN2CCN(c3ccc(C(=O)NS(=O)(=O)c4ccc(N[C@H](CCN5CCOCC5)CSc5ccccc5)c(S(=O)(=O)C(F)(F)F)c4)cc3)CC2)C1 [Navitoclax] + NC(=O)Nc1cc(-c2cccc(F)c2)sc1C(=O)N[C@H]1CCCNC1 [AZD7762] (partner 0.2 µM) is ____.
OUT: 0.466
